# Test system: SK-MEL-28 melanoma
# experimental-details: NCI-60 one-dose screen, 48 h
# recorded-conditions: 10 µM unless noted
About 83,000 compounds went through this panel and 20% of them were active in at least one assay; those are over-represented in the sample as a whole. The source made the active and inactive calls. Rule for the calls: active = growth percent below 10; inactive = the rest.
Would you mind answering with one of these outcomes? active, inactive

Prompt: I would be grateful if you could indicate the recorded call for `CCCCCCCN(CCCCCCC)C(=N)c1ccnc2ccccc12` .
Response: active

Prompt: Next record, please: O=C1C=C(C(O)c2ccc(O)cc2)C(=O)c2ccccc21 (stereo not drawn)
Response: inactive

Prompt: Next record, please: `NCCNc1nc(-c2ccccc2)nc2nc(-c3ccccc3)oc12`
Response: inactive

Prompt: Next record, please: Nc1nc2c(c(=O)[nH]1)C(c1ccc3c(c1)OCO3)C=C(C(=O)O)N2 (stereo not drawn)
Response: inactive

Prompt: Next record, please: `O=C(NCN1C(=O)c2cccc3cccc(c23)C1=O)N1CCC(Cc2ccccc2)CC1`
Response: inactive

Prompt: Next record, please: `C[C@@H](Oc1ccc(C(=O)NS(=O)(=O)C(C)(C)C)cc1C(F)(F)F)c1ccc(Oc2ccccc2)cn1`
Response: inactive

Prompt: Next record, please: `CC/C=C\C[C@H]1CC=C2C(=O)C=C[C@@H]2CC=CCCCC(=O)O[C@@H](CCCCC)CC=C2C(=O)C=C[C@@H]2CC=CCCCC(=O)O[C@@H](CCCCC)CC=C2C(=O)C=C[C@@H]2CC=CCCCC(=O)O[C@@H](CCCCC)CC=C2C(=O)C=C[C@@H]2CC=CCCCC(=O)O1`
Response: inactive

Prompt: Next record, please: `COc1cc2c(cc1-c1c(C)noc1C)ncc1nc(C3CC3)n([C@H](C)COC(F)F)c12`
Response: inactive

###

# System: CCRF-CEM leukemia
# experimental-details: NCI-60 one-dose screen, 48 h (100 = growth as untreated, 0 = no growth, -100 = all killed)
# recorded-conditions: 10 µM unless noted
About 83,000 compounds went through this panel and 20% of them were active in at least one assay; those are over-represented in the sample as a whole.
growth vs 60%: at or above is Condition met, below is Condition not met.

Prompt: Hi team, for `COCCNC1=C(Cl)C(=O)c2ccccc2C1=O` , is the recorded growth at or above 60%?
Response: Condition met

Prompt: Next record, please: `O=C(/C=C/c1ccc2ccccc2c1)Nc1ncc(Cc2ccccc2)s1`
Response: Condition not met

Prompt: Next record, please: `COc1ccc(NC(=S)N/N=C/c2ccccc2SSCCC(=O)OC[C@H]2O[C@H](O)[C@H](O)[C@@H](O)[C@@H]2O)cc1`
Response: Condition met

Prompt: Next record, please: `COc1cccc(-c2nn(-c3ccccc3)cc2-c2ccnc(NCCNS(=O)(=O)c3ccccc3)c2)c1`
Response: Condition not met

###

# Tested on: RPMI-8226 leukemia
# experimental-details: NCI-60 one-dose screen, 48 h
# recorded-conditions: 10 µM unless noted
About 83,000 compounds went through this panel and 20% of them were active in at least one assay; those are over-represented in the sample as a whole. The source made the active and inactive calls. Rule for the calls: active = growth percent below 10; inactive = the rest.
Would you mind answering with one of these outcomes? true = active, false = inactive

Prompt: I would be grateful if you could indicate the recorded call for `C[C@H]1OC(=O)/C=C/[C@@H](O)[C@@H](O)CCCCCCCC[C@@H]1O` .
Response: false

Prompt: Next record, please: `CN1CCN(CC#CCn2c3c(c4ccccc42)C[C@]2(C)[C@H]4CC[C@@H]5[C@H]6[C@H]7OC(=O)[C@@]6(CCC7(C)C)CC[C@@]5(C)[C@]4(C)CC[C@H]2C3(C)C)CC1`
Response: false

Prompt: Next record, please: `CC1(C)CC[C@]2(CO)CC[C@]3(C)C(=CC[C@@H]4[C@@]5(C)CC[C@H](NCO)C(C)(C)[C@@H]5CC[C@]43C)[C@@H]2C1`
Response: true

Prompt: Next record, please: `CN1CCN(c2nc(-c3cccc4ccccc34)nc3sc4c(c23)CCCCCC4)CC1`
Response: false

Prompt: Next record, please: `CNC(=O)c1cc(Oc2ccc3nc(NC(=O)Nc4ccc(Cl)cc4)sc3c2)ccn1`
Response: false

Prompt: Next record, please: `N=c1c(S(=O)(=O)c2ccccc2)cc2c(=O)n3ccccc3nc2n1C1CCCC1`
Response: false

Prompt: Next record, please: `C[C@]12CC[C@@H]3c4ccc(O)cc4CC[C@H]3[C@@H]1C[C@H](O)[C@@H]2O`
Response: false

Prompt: Next record, please: `O=c1[nH]c(=S)[nH]c2nc[nH]c12`
Response: false
